The reported numbers originate from paper PMC9482650.

# tgt: T1, NHERF3_3, Q5T2W1
# T1 sequence (Q5T2W1 238-333, limits assumed, looked up): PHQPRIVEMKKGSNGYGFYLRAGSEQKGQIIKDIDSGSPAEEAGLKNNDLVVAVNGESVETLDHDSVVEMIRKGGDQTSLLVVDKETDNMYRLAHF
# assay.text: holdup assay
# Parameters: key: below the threshold = too weak to quantify, mostly under pKd 3.1 to 4
# test.settings: plain residues with an end cap or a label only (N-terminal biotin on a linker: ado-ado)
quantity.kind: pKd

Here are 8 binders together with their reported answers.
1. SNAGNTATKA [NOSTRIN, Q8IVI9]	below the threshold
2. PKRSFIESNV [TANC1, Q9C0D5]	below the threshold
3. LGRSTPQSEV [DGKH, Q86XP1]	below the threshold
4. PPYRHRNTVV [ERBB4, Q15303]	below the threshold
5. YLEPVLSSEL [ATP2A2, P16615;P16615-3]	below the threshold
6. KSGKQTMLVV [TRIM29, Q14134]	3.75
7. PAPSSGKDYV [CLDN1, O95832]	below the threshold
8. LRSPRTPSEV [OR10G3, Q8NGC4]	3.54

Given the binder VDSTVKVWTC [TRAF7, Q6Q0C0] , what is its reported pKd?
3.48

Please report the recorded pKd for LPHGHSTTRV [NLGN4X, Q8N0W4] .
below the threshold

Endpoint output: pKd of HLRARKSEWV [GJD4, Q96KN9] . Value?
below the threshold
